pIC50: −log10 of the molar value.
pIC50 data for JNK3 (Homo sapiens) follow.

smiles string: Fc1cccc(-c2c[nH]c3ncc(-c4ccccc4Oc4ccccc4)cc23)c1
pIC50: > 6.30

smiles string: c1ccc(Oc2ccccc2-c2cnc3[nH]cc(-c4ccccc4)c3c2)cc1
pIC50: > 6.30

smiles string: c1csc(-c2cnc3[nH]cc(-c4ccoc4)c3c2)c1
pIC50: > 6.30

* * *

Target: p38 MAP kinase (Homo sapiens)
Sequence (Q16539 whole entry): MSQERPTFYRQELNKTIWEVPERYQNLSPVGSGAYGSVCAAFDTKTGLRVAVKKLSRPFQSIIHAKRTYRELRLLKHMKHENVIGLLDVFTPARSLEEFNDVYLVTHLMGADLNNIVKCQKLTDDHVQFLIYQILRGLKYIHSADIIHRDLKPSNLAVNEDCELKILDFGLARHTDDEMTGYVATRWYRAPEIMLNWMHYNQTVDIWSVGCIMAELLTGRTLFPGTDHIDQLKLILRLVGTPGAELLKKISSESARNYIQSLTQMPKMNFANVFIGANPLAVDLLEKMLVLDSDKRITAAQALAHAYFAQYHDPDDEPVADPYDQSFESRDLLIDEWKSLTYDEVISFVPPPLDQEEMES
List of IC50 values.

smiles string: c1csc(-c2cnc3[nH]cc(-c4ccoc4)c3c2)c1
system: p38 MAP kinase (Homo sapiens)
IC50: > 10 µM
--
smiles string: CN(C)c1ccc(-c2cnc3[nH]cc(-c4ccoc4)c3c2)cc1
system: p38 MAP kinase (Homo sapiens)
IC50: > 10 µM

Values were extracted from patent US7432375B2.
